Recorded values, source ChEMBL document CHEMBL1201861.

Test system: KP-N-YS;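 note: cell viability assay measuring inhibition of cell line growth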
ASSAY_METHOD_TEXT: cells
Type: functional, cell-based
MEASUREMENT_CONTEXT: Homo sapiens
Description: SANGER: Inhibition of human KP-N-YS cell growth in a cell viability assay.
METRIC: IC50 (nM)
Dear colleague, please return just the value in nM, with no unit written.

Cc1cc(Nc2cc(N3CCN(C)CC3)nc(Sc3ccc(NC(=O)C4CC4)cc3)n2)n[nH]1 544

Here is another compound to look at.
**Query** Supply measured IC50 of COc1ccc(-c2ccc3c(N4CCOC[C@@H]4C)nc(N4CCOC[C@@H]4C)nc3n2)cc1CO in your reply.
**Result** 431

---

Tested on: NCI-H2126;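 note: growth inhibition of the cancer cell line, determined with a cell viability readout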
ASSAY_METHOD_TEXT: cells
Type: functional, cell-based, Homo sapiens
MEASUREMENT_CONTEXT: Homo sapiens, NCI-H2126
Description: SANGER: Inhibition of human NCI-H2126 cell growth in a cell viability assay.
METRIC: IC50

**Query** Return reported IC50. Input compound: Nc1ccn([C@@H]2O[C@H](CO)[C@@H](O)[C@@H]2O)c(=O)n1 [CYTARABINE]
**Result** > 2 µM

**Query** Supply reported IC50 belonging to this compound: CC(=O)O[C@@H]1[C@@H](OC(C)=O)[C@@H](O)[C@H](Oc2c(-c3ccc(O)cc3)oc3cc(O)cc(O)c3c2=O)O[C@H]1C
**Result** > 10 µM

**Query** Please give measured IC50 of the following entry: Cc1ccc(Nc2nccc(N(C)c3ccc4c(C)n(C)nc4c3)n2)cc1S(N)(=O)=O [PAZOPANIB]
**Result** > 8 µM

---

Item-by-item account of IC50
Test system: HCC 2998;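 note: growth inhibition of human HCC2998 cells, measured with a cell viability read-out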
ASSAY_METHOD_TEXT: cells
Type: functional, cell-based, Homo sapiens
MEASUREMENT_CONTEXT: Homo sapiens, HCC 2998
Description: SANGER: Inhibition of human HCC2998 cell growth in a cell viability assay.

Consider the reported IC50 for these molecules:
Cc1cnc(-c2cnc(NCCNc3ccc(C#N)cn3)nc2-c2ccc(Cl)cc2Cl)[nH]1 > 2560 nM
Cc1ccc(Nc2nccc(N(C)c3ccc4c(C)n(C)nc4c3)n2)cc1S(N)(=O)=O > 8000 nM

**Query** Quick one: give measured IC50 for CS(=O)(=O)CCNCc1ccc(-c2ccc3ncnc(Nc4ccc(OCc5cccc(F)c5)c(Cl)c4)c3c2)o1
**Result** > 2000 nM

---

System: REH
ASSAY_METHOD_TEXT: cells
Assay type: functional, cell-based
MEASUREMENT_CONTEXT: Homo sapiens
Description: SANGER: Inhibition of human REH cell growth in a cell viability assay.
Listing of recorded IC50 by entry.

**Query** Provide IC50, system REH, entry CNC(=O)c1cc(Oc2ccc(NC(=O)Nc3ccc(Cl)c(C(F)(F)F)c3)cc2)ccn1 [SORAFENIB]
**Result** > 4 µM

**Query** With REH as the test system, provide measured IC50 for this compound: CCC(=O)N1CCN(c2ccc(-n3c(=O)ccc4cnc5ccc(-c6cnc7ccccc7c6)cc5c43)cc2C(F)(F)F)CC1 [TORIN1]
**Result** > 1.2 µM

**Query** GET IC50 where system = REH and item = O=C(/C=C/c1ccccc1)NC(NC(=S)Nc1cccc2cccnc12)C(Cl)(Cl)Cl (centres undefined) [SALUBRINAL]
**Result** > 16 µM

**Query** Enter recorded IC50 with REH for Cc1cc([C@@H](C)Nc2ccccc2C(=O)O)c2nc(N3CCOCC3)cc(=O)n2c1 [AZD-6482] here.
**Result** > 5.12 µM

---

Test system: T98G
ASSAY_METHOD_TEXT: cells
Type: functional, cell-based, Homo sapiens
MEASUREMENT_CONTEXT: Homo sapiens, T98G
Description: SANGER: Inhibition of human T98G cell growth in a cell viability assay.
pIC50: −log10 of the molar value.
Quick list: pIC50 per entry.

COMPOUND	pIC50
CN(Cc1cnc2nc(N)nc(N)c2n1)c1ccc(C(=O)N[C@@H](CCC(=O)O)C(=O)O)cc1 [METHOTREXATE]	< 6.70
C=CCc1cccc(/C=N/NC(=O)CN2CCN(Cc3ccccc3)CC2)c1O [PAC-1]	< 5.59

**Query** Please respond with reported pIC50 (system T98G) for Cc1cnc(-c2cnc(NCCNc3ccc(C#N)cn3)nc2-c2ccc(Cl)cc2Cl)[nH]1 [LADUVIGLUSIB] .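 Note: growth inhibition of T98G cells, read out by a cell viability assay.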
**Result** < 5.59
